Every entry's value here was drawn from ChEMBL document CHEMBL3885861.

Organism: Rattus norvegicus
EXPERIMENTAL DETAILS: Open TG-GATES - Regimen: Daily Repeat
Format: toxicity, organism-based, Sprague-Dawley
Set-up: regimen Daily Repeat, gender Male, age 6 weeks
MEASUREMENT SETUP: in vivo, po, 0 mg/kg, 72 h, tissue Plasma, route gavage, dose level Control, time 3 day
Each record here notes measured GLC.

- MOLECULE: "Clc1ccccc1CN1CCc2sccc2C1"
  DISPLAY UNIT: "mg/dL"
  GLC: 205.4
- MOLECULE: "CC(=O)Oc1ccccc1C(=O)O"
  DISPLAY UNIT: "mg/dL"
  GLC: 203.2
- MOLECULE: "C[C@H](CS)C(=O)N1CCC[C@H]1C(=O)O"
  DISPLAY UNIT: "mg/dL"
  GLC: 197.6
- MOLECULE: "CCc1cc(C(N)=S)ccn1 [ETHIONAMIDE]"
  DISPLAY UNIT: "mg/dL"
  GLC: 188.6
- MOLECULE: "O=C(O)c1cn(C2CC2)c2cc(N3CCNCC3)c(F)cc2c1=O"
  DISPLAY UNIT: "mg/dL"
  GLC: 182
- MOLECULE: "Cn1c(=O)c2[nH]cnc2n(C)c1=O.O"
  DISPLAY UNIT: "mg/dL"
  GLC: 203.8

---

Species: Rattus norvegicus
EXPERIMENTAL DETAILS: Open TG-GATES - Regimen: Single
Type: toxicity, organism-based, Sprague-Dawley
Set-up: regimen Single, gender Male, age 6 weeks
MEASUREMENT SETUP: in vivo, po, 0 mg/kg, 24 h, tissue Plasma, route gavage, dose level Control
Each record here notes measured gamma-GTP.

- COMPOUND: "Cn1c(=O)c2[nH]cnc2n(C)c1=O.O"
  gamma-GTP: "1.2 IU/L"
- COMPOUND: "CSc1ccc2c(c1)N(CCC1CCCCN1C)c1ccccc1S2 (stereo not drawn)"
  gamma-GTP: "1.2 IU/L"
- COMPOUND: "C[C@H](CS)C(=O)N1CCC[C@H]1C(=O)O"
  gamma-GTP: "1 IU/L"

---

Species: Rattus norvegicus
EXPERIMENTAL DETAILS: Open TG-GATES - Regimen: Single
Type: toxicity, organism-based, Sprague-Dawley
Parameters: regimen Single, gender Male, age 6 weeks
MEASUREMENT SETUP: in vivo, po, 0 mg/kg, 9 h, tissue Blood, route gavage, dose level Control
QUANTITY KIND: APTT

- MOLECULE: "CC(=O)Oc1ccccc1C(=O)O"
  QUANTITY KIND: "APTT"
  RESULT: "17.3 s"
- MOLECULE: "CSc1ccc2c(c1)N(CCC1CCCCN1C)c1ccccc1S2 (stereo not drawn)"
  QUANTITY KIND: "APTT"
  RESULT: "16.6 s"
- MOLECULE: "CN(C)CCC=C1c2ccccc2CCc2ccccc21"
  QUANTITY KIND: "APTT"
  RESULT: "16 s"

---

Species on record: Rattus norvegicus
EXPERIMENTAL DETAILS: Open TG-GATES - Regimen: Daily Repeat
Assay type: toxicity, organism-based, Sprague-Dawley
Design: regimen Daily Repeat, gender Male, age 6 weeks
MEASUREMENT SETUP: in vivo, po, 0 mg/kg, […], tissue Plasma, route gavage, dose level Control, time 7 day
QUANTITY KIND: Na (meq/L)

- COMPOUND: "O=C(O)c1cn(C2CC2)c2cc(N3CCNCC3)c(F)cc2c1=O [CIPROFLOXACIN]"
  QUANTITY KIND: "Na"
  DISPLAY UNIT: "meq/L"
  NUMERIC RESULT: 140.6
- COMPOUND: "O=C(O)c1cc(/N=N/c2ccc(S(=O)(=O)Nc3ccccn3)cc2)ccc1O [SULFASALAZINE]"
  QUANTITY KIND: "Na"
  DISPLAY UNIT: "meq/L"
  NUMERIC RESULT: 140.8
- COMPOUND: "CN(C)CCC=C1c2ccccc2CCc2ccccc21 [AMITRIPTYLINE]"
  QUANTITY KIND: "Na"
  DISPLAY UNIT: "meq/L"
  NUMERIC RESULT: 143.8
